- experiment_description: Study VX-222-102 Part A: VX-222 for 3 days in HCV infected subjects (PK, safety)
- Type: in vivo, human
- condition: human, in vivo; 250 mg b.i.d., Day 3, HCV infected subjects; read-out: T1/2 Arithmetic Mean (converted)
measured_parameter: half-life (h)
Please respond with the number in h and leave the unit unwritten.

Any idea what its half-life is? The compound is CC1CCC(C(=O)N(c2cc(C#CC(C)(C)C)sc2C(=O)O)C2CCC(O)CC2)CC1 (stereo not shown) [VX-222]
4.1

----------
- experiment_description: Study VX-222-002: combination treatment with VX-222 and VX-950 in healthy subjects (PK, safety)
- condition: human, plasma, oral, 400 mg, Cmax, VX-222 400 mg BID alone, Day 10, healthy subjects, fed; geometric mean (CV %)
measured_parameter: Cmax
Record the result as a number with its unit.

Any idea what its Cmax is? The compound is CC1CCC(C(=O)N(c2cc(C#CC(C)(C)C)sc2C(=O)O)C2CCC(O)CC2)CC1 (stereo not shown)
1770 ng/mL

----------
- experiment_description: Study VX-222-102 Part A: VX-222 for 3 days in HCV infected subjects (PK, safety)
- Format: in vivo, human
- condition: human, in vivo, post dose, 250-750 mg BID and 1500 mg QD, FIG. 7; read-out: Tmax
measured_parameter: Tmax

Any idea what its Tmax is? The compound is CC1CCC(C(=O)N(c2cc(C#CC(C)(C)C)sc2C(=O)O)C2CCC(O)CC2)CC1 (stereo not shown) [VX-222]
2 to 6 h

----------
- experiment_description: Study VX-222-102 Part A: VX-222 for 3 days in HCV infected subjects (PK, safety)
- Type: in vivo, human
- condition: human, in vivo, 500 mg, 500 mg b.i.d., Day 1, HCV infected subjects; read-out: Cmax Geometric Mean
measured_parameter: Cmax (ng/mL)
Please respond with the number in ng/mL and leave the unit unwritten.

Any idea what its Cmax is? The compound is CC1CCC(C(=O)N(c2cc(C#CC(C)(C)C)sc2C(=O)O)C2CCC(O)CC2)CC1 (stereo not shown)
4360

----------
- experiment_description: Study VX-222-102 Part A: VX-222 for 3 days in HCV infected subjects (PK, safety)
- Assay type: in vivo, human
- condition: human, in vivo, 750 mg, 750 mg b.i.d., Day 1, HCV infected subjects; read-out: Cmax Geometric Mean
measured_parameter: Cmax
Record the result as a number with its unit.

Any idea what its Cmax is? The molecule is CC1CCC(C(=O)N(c2cc(C#CC(C)(C)C)sc2C(=O)O)C2CCC(O)CC2)CC1 (stereo not shown) [VX-222]
6520 ng/mL

----------
- experiment_description: Study VX-222-102 Part A: VX-222 for 3 days in HCV infected subjects (PK, safety)
- Type: in vivo, human
- condition: human, in vivo, 500 mg, 500 mg b.i.d., Day 1, HCV infected subjects; read-out: tmax Median
measured_parameter: Tmax (h)
Please respond with the number in h and leave the unit unwritten.

Any idea what its Tmax is? The compound is CC1CCC(C(=O)N(c2cc(C#CC(C)(C)C)sc2C(=O)O)C2CCC(O)CC2)CC1 (stereo not shown)
3

----------
- experiment_description: Study VX-222-002: combination treatment with VX-222 and VX-950 in healthy subjects (PK, safety)
- condition: human, plasma, oral, 400 mg, T1/2, VX-222 400 mg BID alone, Day 10, healthy subjects, fed
measured_parameter: half-life (h)
Please respond with the number in h and leave the unit unwritten.

Any idea what its half-life is? The compound is CC1CCC(C(=O)N(c2cc(C#CC(C)(C)C)sc2C(=O)O)C2CCC(O)CC2)CC1 (stereo not shown)
2.7

Origin of the recorded values: patent US20130034522A1
